# systemName: human antibody (gamma globulin preparation, manufactured by The Chemo-Sero-Therapeutic Research Institute) (human)
# assayNotes: ELISA; human gamma globulin immobilised; acid treatment 50 mM buffer pH 3.0, 25 C, 15 min; elution rate = 1 - remaining binding activity
Please provide measured Elution rate [%] for the entries that follow.

QUERY: Data request, read-out Elution rate [%], for FpL_C3KX 7d_E8R (designed binder) ETPGESAREVTIRVNLIFADGRIQTAEFIGTFEEATAEAYAYANLLARDYGDFTADLEDGGYTINIRFAGHHHHHH
RESULT: 82%

QUERY: Data request, read-out Elution rate [%], for FpL_C3KX 7d_E33V (designed binder) ETPGESAEEVTIRVNLIFADGRIQTAEFIGTFVEATAEAYAYANLLARDYGDFTADLEDGGYTINIRFAGHHHHHH
RESULT: 86%

QUERY: Data request, read-out Elution rate [%], for FpL_C3KX 7d_K48H (designed binder) ETPGESAEEVTIRVNLIFADGRIQTAEFIGTFEEATAEAYAYANLLAHDYGDFTADLEDGGYTINIRFAGHHHHHH
RESULT: 85%

QUERY: Data request, read-out Elution rate [%], for FpL_C3KX 7d_I23L (designed binder) ETPGESAEEVTIRVNLIFADGRLQTAEFIGTFEEATAEAYAYANLLARDYGDFTADLEDGGYTINIRFAGHHHHHH
RESULT: 82%

QUERY: Data request, read-out Elution rate [%], for FpL_C3KX 7d_P6A (designed binder) ETPGEAAEEVTIRVNLIFADGRIQTAEFIGTFEEATAEAYAYANLLARDYGDFTADLEDGGYTINIRFAGHHHHHH
RESULT: 82%

QUERY: Data request, read-out Elution rate [%], for FpL_C3KX 7d_N44R (designed binder) ETPGESAEEVTIRVNLIFADGRIQTAEFIGTFEEATAEAYAYARLLARDYGDFTADLEDGGYTINIRFAGHHHHHH
RESULT: 82%

QUERY: Data request, read-out Elution rate [%], for FpL_C3KX 7d (designed binder) ETPGESAEEVTIRVNLIFADGRIQTAEFIGTFEEATAEAYAYANLLARDYGDFTADLEDGGYTINIRFAGHHHHHH
RESULT: 78%

QUERY: Data request, read-out Elution rate [%], for FpL_C3KX 7d_E8G (designed binder) ETPGESAGEVTIRVNLIFADGRIQTAEFIGTFEEATAEAYAYANLLARDYGDFTADLEDGGYTINIRFAGHHHHHH
RESULT: 80%

QUERY: Data request, read-out Elution rate [%], for FpL_C3KX 7d_E52Y (designed binder) ETPGESAEEVTIRVNLIFADGRIQTAEFIGTFEEATAEAYAYANLLARDYGYFTADLEDGGYTINIRFAGHHHHHH
RESULT: 85%

QUERY: Data request, read-out Elution rate [%], for FpL_C3KX 7d_I23F (designed binder) ETPGESAEEVTIRVNLIFADGRFQTAEFIGTFEEATAEAYAYANLLARDYGDFTADLEDGGYTINIRFAGHHHHHH
RESULT: 81%
